Data credit: PubChem BioAssay (NCI)

# Test system: OVCAR-3 ovarian
# Assay: NCI tumour cell line growth inhibition, 48 h
Property: TGI; scope: individual molecules
Value Kind: TGI

>>> endpoint_result("O=C(c1ccncc1)n1nc(-c2ccccc2)c(N=Nc2ccccc2[N+](=O)[O-])c1-c1ccccc1")
"> 100 µM"
>>> endpoint_result("Cc1cc(S(=O)(=O)/N=C(/C(=C=[N-])C#N)[n+]2ccc(N(C)C)cc2)c(SCC(=O)O)cc1Cl")
"> 100 µM"
>>> endpoint_result("C=C1C(OC2O[C@@H]3O[C@@]4(C)CC[C@H]5[C@H](C)CC[C@@H](C2=C)[C@@]35O4)O[C@@H]2O[C@@]3(C)CC[C@H]4[C@H](C)CC[C@@H]1[C@@]24O3 (stereo not given in full)")
"> 50 µM"
>>> endpoint_result("CC(=O)OCC1OC(n2c(-c3ccccc3)c(N=Nc3ccccc3)c(C)c(C#N)c2=S)C(OC(C)=O)C(OC(C)=O)C1OC(C)=O (stereo not given)")
"> 100 µM"
>>> endpoint_result("O=c1nc2c(c(-c3ccc(Br)cc3)[nH]1)COC/C2=C\\c1ccc(Br)cc1")
"> 50 µM"
>>> endpoint_result("COC(=O)C1(CCCCCBr)CCCCCCCCCCC1=O (stereo not given)")
"> 100 µM"
>>> endpoint_result("CC1C(=O)OCC2=CCN3CCC(OC(=O)C(C)C1(C)O)C23 (stereo not given)")
"> 100 µM"
>>> endpoint_result("CC(=O)NC(CCCCNC(=O)NCCCl)C(=O)NCc1ccccc1 (stereo not given)")
"> 100 µM"
>>> endpoint_result("COC(=O)[C@]12CCC(C)[C@H](C)[C@H]1C1=CCC3[C@@]4(C)CC[C@H](OC(C)=O)C(C)(C)C4CC[C@@]3(C)C1(C)C(O)C2 (stereo not given in full)")
"> 100 µM"
>>> endpoint_result("CCN(CC)C(=S)SC")
"> 100 µM"
